Data origin: BindingDB's records for doi:10.1021/acschembio.6b00511

- target_under_test: Serine/threonine-protein kinase WNK4 [1-444] (Homo sapiens)
- Sequence (Q96J92 1-444): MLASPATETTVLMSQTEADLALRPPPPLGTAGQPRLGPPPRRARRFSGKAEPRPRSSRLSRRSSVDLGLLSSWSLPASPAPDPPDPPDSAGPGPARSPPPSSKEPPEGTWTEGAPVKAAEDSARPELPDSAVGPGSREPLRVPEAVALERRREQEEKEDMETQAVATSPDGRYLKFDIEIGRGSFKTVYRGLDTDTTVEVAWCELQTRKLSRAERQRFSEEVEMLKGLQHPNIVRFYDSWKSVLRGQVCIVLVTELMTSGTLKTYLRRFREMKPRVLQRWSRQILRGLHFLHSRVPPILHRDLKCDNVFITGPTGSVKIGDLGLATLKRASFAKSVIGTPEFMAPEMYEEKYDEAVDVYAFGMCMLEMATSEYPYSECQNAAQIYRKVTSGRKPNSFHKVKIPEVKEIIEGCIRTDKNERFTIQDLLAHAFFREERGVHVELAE
property_name: IC50 (nM)

INSERT INTO results (input_smiles, target_under_test, property_name, measured_number) VALUES
  ('CNc1nc(-c2ccc3c(c2)CCN3C(=O)c2ccccc2OCc2ccc(Cl)cc2)cs1', 'Serine/threonine-protein kinase WNK4 [1-444] (Homo sapiens)', 'IC50', 187);

====

- target_under_test: Serine/threonine-protein kinase WNK3 [1-434] (Homo sapiens, UniProt Q9BYP7)
- Sequence (Q9BYP7 1-434): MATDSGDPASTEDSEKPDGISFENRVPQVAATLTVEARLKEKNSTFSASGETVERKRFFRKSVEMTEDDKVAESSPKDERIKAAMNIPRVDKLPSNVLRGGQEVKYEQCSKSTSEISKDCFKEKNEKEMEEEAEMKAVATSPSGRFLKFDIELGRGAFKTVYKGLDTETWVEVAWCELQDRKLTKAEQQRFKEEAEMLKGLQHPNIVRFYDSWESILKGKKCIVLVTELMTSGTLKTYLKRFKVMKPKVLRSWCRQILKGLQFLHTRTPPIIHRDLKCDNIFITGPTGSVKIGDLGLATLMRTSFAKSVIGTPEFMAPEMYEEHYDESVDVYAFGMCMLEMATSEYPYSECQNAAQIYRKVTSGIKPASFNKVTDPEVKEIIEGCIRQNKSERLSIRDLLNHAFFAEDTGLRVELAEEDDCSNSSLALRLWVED
property_name: IC50 (nM)

INSERT INTO measurements (input_smiles, measured_number) VALUES
  ('CNc1nc(-c2ccc3c(c2)CCN3C(=O)c2ccccc2OCc2ccc(Cl)cc2)cs1', 377);
